Ref: the supplement of paper PMC6992640

Test system: HCI01 (cells of a triple-negative basal-like breast cancer xenograft)
Experiment: cell viability (% of vehicle); higher = less cytotoxic;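 further: PDX cells carrying CMV promoter-driven luciferase, viability read as total photon flux per second by IVIS imaging following D-luciferin, vehicle control 0.1% DMSO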
Settings: 10 µM; 72 h
assay.readout: cell viability

>  <compound>
Br.COc1ccc2c3c1O[C@H]1C[C@@H](O)C=C[C@@]31CCN(C)C2

>  <experimental.system>
HCI01

>  <assay.readout>
cell viability

>  <data.value>
113

$$$$
>  <compound>
CC(=O)N(c1onc(C)c1C)S(=O)(=O)c1ccc(N)cc1

>  <experimental.system>
HCI01

>  <assay.readout>
cell viability

>  <data.value>
90.9

$$$$
>  <compound>
Cc1c(-c2ccccc2)oc2c(C(=O)OCCN3CCCCC3)cccc2c1=O.Cl [Flavoxate hydrochloride]

>  <experimental.system>
HCI01

>  <assay.readout>
cell viability

>  <data.value>
87

$$$$
>  <compound>
CC12CCC3c4ccc(O)cc4CCC3C1CCC2OC(=O)CCC1CCCC1 (configuration not stated) [Estradiol Cypionate]

>  <experimental.system>
HCI01

>  <assay.readout>
cell viability

>  <data.value>
168

$$$$
>  <compound>
COc1cc2nc(N3CCN(C(=O)c4ccco4)CC3)nc(N)c2cc1OC.Cl [Prazosin HCl]

>  <experimental.system>
HCI01

>  <assay.readout>
cell viability

>  <data.value>
152

$$$$
>  <compound>
CC(=O)O[C@@]12CO[C@@H]1C[C@H](O)[C@@]1(C)C(=O)[C@H](O)C3=C(C)[C@@H](OC(=O)[C@H](O)[C@@H](NC(=O)OC(C)(C)C)c4ccccc4)C[C@@](O)([C@@H](OC(=O)c4ccccc4)[C@H]21)C3(C)C

>  <experimental.system>
HCI01

>  <assay.readout>
cell viability

>  <data.value>
154

$$$$
>  <compound>
O=C(O)c1cc(=O)[nH]c(=O)[nH]1

>  <experimental.system>
HCI01

>  <assay.readout>
cell viability

>  <data.value>
90.2

$$$$

====

System: HCI01
Assay: cell viability (% of vehicle); higher = less cytotoxic
Details: 10 µM; 72 h
Decision: cell viability beneath 100 gives true; cell viability meeting or exceeding 100 gives false.

>  <compound>
CC(Cn1cnc2c(N)ncnc21)OCP(=O)(O)O (stereo not drawn)

>  <cat>
true

$$$$
>  <compound>
NCC1OC(OC2C(N)CC(N)C(OC3OC(CO)C(O)C(N)C3O)C2O)C(N)CC1O (stereo not drawn)

>  <cat>
false

$$$$
>  <compound>
CN(Cc1ccc(C(C)(C)C)cc1)Cc1cccc2ccccc12.Cl [Butenafine HCl]

>  <cat>
false

$$$$
>  <compound>
C=C1c2cccc(O)c2C(O)=C2C(=O)C3(O)C(O)=C(C(N)=O)C(=O)C(N(C)C)C3C(O)C12.Cl (stereo not drawn) [Methacycline HCl]

>  <cat>
false

$$$$
>  <compound>
C1N2CN3CN1CN(C2)C3

>  <cat>
true

$$$$
>  <compound>
CN1CCN(c2ccc(C(=O)/N=c3\[nH][nH]c4ccc(Cc5cc(F)cc(F)c5)cc34)c(NC3CCOCC3)c2)CC1

>  <cat>
true

$$$$
>  <compound>
c1ccc(-c2ccc(C(c3ccccc3)n3ccnc3)cc2)cc1 (stereo not drawn)

>  <cat>
true

$$$$

====

Tested on: HCI13 (cells of an ER-positive luminal breast cancer xenograft)
Experiment: cell viability (% of vehicle); higher = less cytotoxic
Details: 10 µM; 72 h
Decision: cell viability beneath 90 gives y; cell viability meeting or exceeding 90 gives n.

>  <compound>
CCC(CO)NCCNC(CC)CO.Cl.Cl (configuration not stated) [Ethambutol HCl]

>  <cat>
n

$$$$
>  <compound>
OCC1OC(Oc2ccc(O)cc2)C(O)C(O)C1O (configuration not stated) [Arbutin]

>  <cat>
n

$$$$
>  <compound>
CCC1=CC2CN(C1)Cc1c([nH]c3ccccc13)C(C(=O)OC)(c1cc3c(cc1OC)N(C)C1C(O)(C(=O)OC)C(OC(C)=O)C4(CC)C=CCN5CCC31C54)C2 (configuration not stated) [Vinorelbine]

>  <cat>
y

$$$$
>  <compound>
CCCC(C(=O)OCCN(CC)CC)(c1ccccc1)c1ccccc1.Cl [SKF 525A (hydrochloride)]

>  <cat>
n

$$$$
>  <compound>
C=C[C@]1(C)C[C@@H](OC(=O)CSC2C[C@H]3CC[C@@H](C2)N3C)[C@]2(C)[C@H](C)CC[C@]3(CCC(=O)[C@H]32)[C@@H](C)[C@@H]1O (some centres not stated) [Retapamulin]

>  <cat>
n

$$$$
>  <compound>
COc1cc(C(=O)NC2CCCNC2)cc(OC)c1OC (configuration not stated) [Troxipide]

>  <cat>
y

$$$$
>  <compound>
Clc1ccccc1C(c1ccccc1)(c1ccccc1)n1ccnc1 [Clotrimazole]

>  <cat>
y

$$$$
